Recorded values, source PubChem BioAssay (EPA / NIEHS).

# PROTOCOL DESCRIPTION: ATG_TA_CIS: Attagene CIS-FACTORIAL HepG2 Assay for human TA Basal Promoter (AID 2282964)
# STUDY CONDITIONS: HepG2 Attagene CIS-factorial TA basal promoter reporter; actives raise or lower the signal
Calls of active or inactive are those of the source. Rule for the calls: active = hit-call score of the fitted dose curve at least 0.9, where 1 is the maximum; inactive = score below 0.9.
Just give me one of these, please: t for active, f for inactive

Consider the worked cases shown below.
CC1(C)C(=O)N(Br)C(=O)N1Br ... f
CC(C)=CCCC(C)=CC=O ... f
CC(C)=CCCC(C)CCO (stereo not drawn) ... f

State the result this test recorded for C[C@](N)(Cc1ccc(O)c(O)c1)C(=O)O .
f

State the result this test recorded for CC(=O)c1ccc2c(c1)[C@H](NC(=O)c1ccc(F)cc1)[C@@H](O)C(C)(C)O2 .
f

State the result this test recorded for CC(C)CC(C)(O)C#CC(C)(O)CC(C)C (stereo not drawn) .
f

State the result this test recorded for CCCCC(CC)COC(=O)c1ccc(C(=O)OCC(CC)CCCC)cc1 (stereo not drawn) .
f

State the result this test recorded for Clc1nc(Cl)c(Cl)c(Cl)c1Cl .
f

State the result this test recorded for CC(C)c1cccc(C(C)C)c1N1C(=O)c2ccc(O)cc2C1=O .
f

State the result this test recorded for CCc1cc(SCc2sc(-c3ccc(C(F)(F)F)cc3)nc2CN2CCN(c3ccc(OC)cc3)CC2)ccc1OCC(=O)O .
t

State the result this test recorded for CC[C@H]1OC(=O)[C@H](C)[C@@H](O[C@H]2C[C@@](C)(OC)[C@@H](O)[C@H](C)O2)[C@H](C)[C@@H](O[C@@H]2O[C@H](C)C[C@H](N(C)C)[C@H]2O)[C@](C)(O)C[C@@H](C)C(=O)[C@H](C)[C@@H](O)[C@]1(C)O .
f

State the result this test recorded for COCCOc1cc2cc(C(=O)NC3CCN(C(C)C)CC3)n(CC(=O)Nc3ccc(Cl)cn3)c2cn1 .
f

State the result this test recorded for CC(C)(O)c1coc(S(=O)(=O)NC(=O)Nc2c3c(cc4c2CCC4)CCC3)c1 .
f

State the result this test recorded for CC[C@H]1CC[C@H](NCc2cc3c(cc2OC)[C@H]2C[C@H]2C(=O)N3C)[C@H](c2ccccc2)N1 .
f

State the result this test recorded for C1N2CN3CN1CN(C2)C3 .
f

State the result this test recorded for C=CCCCCCCCCC(=O)O .
f

State the result this test recorded for Cc1ccc(S(=O)(=O)O)cc1C .
f

State the result this test recorded for O=C(O)CCN(C1(C(=O)NO)CCCC1)S(=O)(=O)c1ccc(Oc2ccc(F)cc2)cc1 .
f

State the result this test recorded for Cc1ccc(C)c(O)c1 .
f

State the result this test recorded for CN(C)c1ccc(Cc2ccc(N(C)C)cc2)cc1 .
f

State the result this test recorded for COCCOCCOCCOC .
f

State the result this test recorded for CC(O)CN(CCN(CC(C)O)CC(C)O)CC(C)O (stereo not drawn) .
f

State the result this test recorded for CN(C)c1ccc(N=NS(=O)(=O)O)cc1 .
f

###

# Read-out: Tissue Factor, F3 (gene 2152)
# PROTOCOL DESCRIPTION: BSK_LPS_TissueFactor: BioMAP Diversity Plus: LPS Assay for Tissue Factor Biomarker Activity (AID 2283084)
# STUDY CONDITIONS: primary human HUVEC with PBMC; actives raise or lower the signal
Calls of active or inactive are those of the source. The calls were made as follows: active = hit-call score of the fitted dose curve at least 0.9, where 1 is the maximum; inactive = score below 0.9.
Just give me one of these, please: yes (1) (active), no (0) (inactive)

State the result this test recorded for CCOc1cccc(-n2cc(C(=O)N3CCN(c4cc(C(=O)O)c5ccccc5c4)CC3)nc2-c2ccc(C)cc2)c1 .
yes (1)

State the result this test recorded for C1=CCCC=CCCC=CCC1 .
no (0)

State the result this test recorded for CC[C@H]1CC[C@H](NCc2cc3c(cc2OC)[C@H]2C[C@H]2C(=O)N3C)[C@H](c2ccccc2)N1 .
no (0)

State the result this test recorded for O=P(OC(CCl)CCl)(OC(CCl)CCl)OC(CCl)CCl .
no (0)

State the result this test recorded for CC(O)CN(CCN(CC(C)O)CC(C)O)CC(C)O (configuration not stated) .
no (0)

State the result this test recorded for CN(C)c1ccc(N=NS(=O)(=O)O)cc1 .
yes (1)

State the result this test recorded for Cn1cnc([N+](=O)[O-])c1Sc1ncnc2nc[nH]c12 .
no (0)

State the result this test recorded for Cc1[nH]cnc1C[C@H]1CCc2c(C)c3ccccc3n2C1=O .
no (0)

State the result this test recorded for CC(C)=CCCC(C)=CC=O .
no (0)

###

# PROTOCOL DESCRIPTION: BSK_KF3CT_SRB: Viability Assessment in the BioMAP Diversity Plus: KF3CT Assay (AID 2283069);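 note: total protein by sulforhodamine B staining as a cytotoxicity measure; read 24 h after compound addition; fitted for both signal gain and loss against DMSO baseline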
# STUDY CONDITIONS: primary human keratinocytes with fibroblasts
Active and inactive are the calls of the source. The calls were made as follows: active = hit-call score of the fitted dose curve at least 0.9, where 1 is the maximum; inactive = score below 0.9.
Just give me one of these, please: yes for active, no for inactive

Consider the worked cases shown below.
O=C1OC(=O)C2C3C=CC(C3)C12 (centres undefined) ... no
CCC(C)(C)C(=O)O[C@H]1C[C@@H](C)C=C2C=C[C@H](C)[C@H](CC[C@@H]3C[C@@H](O)CC(=O)O3)[C@H]21 ... yes
CC(C)(O)c1coc(S(=O)(=O)NC(=O)Nc2c3c(cc4c2CCC4)CCC3)c1 ... no
CCOCCOCCOCCO ... no
CC(C)CCCCCCCOC(=O)CCCCC(=O)OCCCCCCCC(C)C ... no
O=C(O)c1cccc(Oc2ccccc2)c1 ... no
CCOc1cccc(-n2cc(C(=O)N3CCN(c4cc(C(=O)O)c5ccccc5c4)CC3)nc2-c2ccc(C)cc2)c1 ... yes
CCn1nc(Cc2ccccc2)cc1C1CCN(C[C@H]2C[C@H](N(C)[C@@H](C(=O)O)C(C)C)C[C@@H]2c2cccc(F)c2)CC1 ... no
CC1=CC(=O)CC(C)(C)C1 ... no
CCCCCCCCCCCCc1ccccc1 ... no

API: the following record is the query input.
State the result this test recorded for CCOC(=O)COc1ccc2c(c1)CC(NCC(O)c1cccc(Cl)c1)CC2 (centres undefined) .
no

###

# Read-out: Matrix Metallopeptidase 9 (MMP9), MMP9 (gene 4318)
# PROTOCOL DESCRIPTION: BSK_KF3CT_MMP9: BioMAP Diversity Plus: KF3CT Assay for Matrix Metallopeptidase 9 (MMP9) Biomarker Activity (AID 2283074)
# STUDY CONDITIONS: primary human keratinocytes with fibroblasts; actives raise or lower the signal
Calls of active or inactive are those of the source. How the source made its calls: active means hit-call score of the fitted dose curve at least 0.9, where 1 is the maximum; inactive means score below 0.9.
Just give me one of these, please: 1 (active), 0 (inactive)

Consider the worked cases shown below.
Cc1ccc(C)c(O)c1 ... 0
Nc1nc2ncc(CNc3ccc(C(=O)N[C@@H](CCC(=O)O)C(=O)O)cc3)nc2c(=O)[nH]1 ... 0
CCCCCCCCO ... 0
COCCOc1cc2cc(C(=O)NC3CCN(C(C)C)CC3)n(CC(=O)Nc3ccc(Cl)cn3)c2cn1 ... 0
CCOc1cccc(-n2cc(C(=O)N3CCN(c4cc(C(=O)O)c5ccccc5c4)CC3)nc2-c2ccc(C)cc2)c1 ... 1

API: the following record is the query input.
State the result this test recorded for CC(C)=CCC/C(C)=C\CO .
0

###

# Read-out: growth arrest and DNA damage 45 (GADD45G), GADD45G (gene 10912)
# PROTOCOL DESCRIPTION: LTEA_HepaRG_GADD45G: Life Technologies and Expression Analysis (LTEA) Assay for growth arrest and DNA damage 45 (GADD45G) using HepaRG (AID 2283499)
# STUDY CONDITIONS: mRNA level, 48 h; actives raise or lower the signal
# Method: LTEA_HepaRG is a cell based, multiplexed-readout assay that uses HepaRG, a human liver cell line, with measurements taken at 48 hours after chemical dosing on a 96-well plate.LTEA_HepaRG_GADD45G is one of 102 assay component(s) measured in the LTEA HepaRG cell culture assay. It is a marker of Cell proliferation, survival, death.Data from the assay component LTEA_HepaRG_GADD45G was analyzed into 1 endpoint. […]
Active and inactive are the calls of the source. How the source made its calls: active means hit-call score of the fitted dose curve at least 0.9, where 1 is the maximum; inactive means score below 0.9.
Just give me one of these, please: T for active, F for inactive

Consider the worked cases shown below.
Cn1c(=O)cc(Oc2ccc(F)cc2F)c2cnc(NCC(C)(C)O)nc21 ... T
CC(=O)c1ccc2c(c1)[C@H](NC(=O)c1ccc(F)cc1)[C@@H](O)C(C)(C)O2 ... F
CC(=O)OCCC(C)C ... F
Fc1ccccc1[C@@H](F)COC1CCC(Nc2ncnc3[nH]ncc23)CC1 (stereo not given in full) ... T
COCCOCCOCCOC ... F

State the result this test recorded for CCOCCO .
F

State the result this test recorded for CCOCCOCCOCCO .
F

###

# PROTOCOL DESCRIPTION: CCTE_Deisenroth_DEVTOX-GLR_Pluri_CellCount: Viability Assessment in CCTE's DevTox GLR-Pluri Assay Evaluation of Total Cell Counts, Deisenroth Lab (AID 2284430)
The source made the active and inactive calls. The calls were made as follows: active = hit-call score of the fitted dose curve at least 0.9, where 1 is the maximum; inactive = score below 0.9.
Just give me one of these, please: TRUE for active, FALSE for inactive

Cn1c(=O)c2c(ncn2C)n(C)c1=O ... FALSE
O=C(O)c1cc(N=Nc2ccc(S(=O)(=O)Nc3ccccn3)cc2)ccc1O ... FALSE
CC[C@H](C)C(=O)O[C@H]1C[C@@H](C)C=C2C=C[C@H](C)[C@H](CC[C@@H]3C[C@@H](O)CC(=O)O3)[C@H]21 ... TRUE

API: the following record is the query input.
State the result this test recorded for C[C@](N)(Cc1ccc(O)c(O)c1)C(=O)O .
FALSE
